# SUBJECT_OF_TEST: HsPepT2 (Homo sapiens, UniProt Q16348)
# Construct: The wild-type HsPepT2 gene was cloned into a pXLG vector
# Sequence (Q16348 whole entry): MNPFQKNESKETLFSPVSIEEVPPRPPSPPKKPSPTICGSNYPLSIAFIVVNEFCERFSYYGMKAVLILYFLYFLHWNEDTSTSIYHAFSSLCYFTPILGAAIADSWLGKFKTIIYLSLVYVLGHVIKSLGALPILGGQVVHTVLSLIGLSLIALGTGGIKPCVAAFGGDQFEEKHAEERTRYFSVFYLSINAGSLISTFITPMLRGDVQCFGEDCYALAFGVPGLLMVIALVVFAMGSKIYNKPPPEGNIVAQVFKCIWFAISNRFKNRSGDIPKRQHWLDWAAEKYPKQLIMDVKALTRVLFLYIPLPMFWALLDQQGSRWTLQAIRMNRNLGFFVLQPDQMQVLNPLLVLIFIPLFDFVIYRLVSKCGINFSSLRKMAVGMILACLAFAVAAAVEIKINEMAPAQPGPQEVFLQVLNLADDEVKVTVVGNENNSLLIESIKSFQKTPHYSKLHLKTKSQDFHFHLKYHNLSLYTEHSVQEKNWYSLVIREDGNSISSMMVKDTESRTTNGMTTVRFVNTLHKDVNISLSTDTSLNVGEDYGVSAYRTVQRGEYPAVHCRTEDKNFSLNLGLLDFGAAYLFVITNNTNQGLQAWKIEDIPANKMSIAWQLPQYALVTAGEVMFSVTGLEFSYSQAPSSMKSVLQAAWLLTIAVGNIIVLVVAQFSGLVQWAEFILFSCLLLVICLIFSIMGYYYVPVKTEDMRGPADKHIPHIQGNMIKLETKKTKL
# ASSAY_METHOD_TEXT: Whole-cell AK-AMCA uptake competition assay in HsPepT2-transfected HEK293F cells
# TEST_SETTINGS: HsPepT2-transfected HEK293F cells, 50 μM β-Ala-Lys-AMCA, pH 6.0, 10 min at 37°C; read-out: IC50, concentration-dependent competition of β-Ala-Lys-AMCA uptake
# Procedure: The wild-type […]2 gene was cloned into a pXLG vector ([61]) containing an expression cassette composed of an N-terminal hexa-histidine tag followed by enhanced green fluorescent protein and a tobacco etch virus protease cleavage site. […] Last, the cells were resuspended in 200 μl of buffer, and the fluorescence was measured in an M1000 microplate reader (TECAN) with excitation at 350 nm and emission at 450 nm. […]
TEST_READOUT: IC50 (µM)

>>> reported_value("NCC(=O)CCC(=O)O")
374
>>> reported_value("CC(C)[C@H](N)C(=O)OCC(CO)OCn1cnc2c(=O)nc(N)[nH]c21 (some centres unmarked)")
369

Data provenance is paper PMC8565842.
